- System: LOX IMVI melanoma
- method summary: NCI tumour cell line growth inhibition, 48 h; in the data active means GI50 below about 0.43 µM; inactive means the rest
Outcomes you can answer with include only these: active, inactive

Kindly provide the recorded test outcome for the following molecule: CC(=O)O[C@H]1CCC2(C)C(=CCC3C2CCC2(C)/C(=N/OC(=O)c4ccc(N(CCCl)CCCl)cc4)CCC32)C1 (stereo not given in full) inactive

Kindly provide the recorded test outcome for the following molecule: `CCCS(=O)(=O)Nc1ccc(F)c(C(=O)c2c[nH]c3ncc(Cl)cc23)c1F` inactive

Kindly provide the recorded test outcome for the following molecule: `O=C(Nc1ccc(CN2CCOCC2)cc1)c1ccc(-c2cc(Cl)ccc2Cl)o1` inactive

Kindly provide the recorded test outcome for the following molecule: `COc1ccc2[nH]c(-c3ccccc3)c(/C=C(\C#N)S(=O)(=O)c3ccccc3)c2c1` inactive

Kindly provide the recorded test outcome for the following molecule: CCc1ccc(CNCC(O)c2ccccc2)cc1 (stereo not given) inactive

Kindly provide the recorded test outcome for the following molecule: `COc1ccc(C(=O)c2cc(OC)c3c(c2)OCO3)cc1O` active

Kindly provide the recorded test outcome for the following molecule: `FC(F)(F)c1nnn[n-]1.[Au+].c1ccc([PH+](c2ccccc2)c2ccccc2)cc1` inactive

Kindly provide the recorded test outcome for the following molecule: `O=C1Nc2cc(Cl)ccc2/C1=C\c1c(-c2ccc(F)cc2)nc2ccccn12` inactive

Kindly provide the recorded test outcome for the following molecule: COc1cccc2c1C(=O)c1c(O)c3c(c(O)c1C2=O)C[C@@](O)(C(C)O)C[C@@H]3OC1CC(N)C(O)C(C)O1 (stereo not given in full) inactive

Kindly provide the recorded test outcome for the following molecule: `CN1CCc2c(c3ccccc3c3ccccc23)C1` inactive

Cited source for all entries: PubChem BioAssay (NCI)
